Data provenance: patent US20240025910A1

- Measurement description: Evaluation of brain penetration property (Kp, Kp,uu) after single oral dose
- Assay type: in vivo
- Settings: BALB/cAJcl-nu/nu, mouse, ratio of compound concentrations in brain/plasma, mice, 1 hour after administration, Kp of 0.1 or more judged brain penetrable
A collection of molecules and their measured Kp at 1 h
Enter a number only.

Worked cases, Kp at 1 h given:
Molecule | Kp at 1 h
COCc1ccc(NC(=O)c2c(C#CC3CCOCC3)n(C3(C)CC3)c3ncnc(N)c23)cc1 [Example 13] | 2.08
COCc1ccc(NC(=O)c2c(C#CCN3CCOCC3)n(C3(C)CC3)c3ncnc(N)c23)cc1 [Example 2] | 1.71
COCc1ccc(NC(=O)c2c(C#Cc3cn(C)nc3C)n(C3(C)CC3)c3ncnc(N)c23)cc1 [Example 1] | 0.425

// switching to the query molecule
INPUT: Give the value of Kp at 1 h reported for the following: COCc1ccc(NC(=O)c2cn(C3(C)CC3)c3ncnc(N)c23)cc1 [Example 8]
OUTPUT: 0.175

###

- Measurement description: Evaluation of brain penetration property (Kp, Kp,uu) after single oral dose
- Assay type: in vivo
- Settings: BALB/cAJcl-nu/nu, mouse, ratio of compound concentrations in brain/plasma, mice, 1 hour after administration, Kp of 0.1 or more judged brain penetrable
Property label: Kp at 1 h

Worked cases, Kp at 1 h given:
Compound | Kp at 1 h
CCOc1c(C(=O)Nc2ccc(COC)cc2)c2c(N)ncnc2n1C1(C)CC1 | 2.12
COCc1ccc(NC(=O)c2c(OC[C@H]3CCCO3)n(C3(C)CC3)c3ncnc(N)c23)cc1 | 1.63
Cc1cc(NC(=O)c2cn(C(C)(C)C)c3ncnc(N)c23)n[nH]1 [compound 1, reference compound] | 0.056
COCc1ccc(NC(=O)c2c(C#Cc3cnn(C)c3)n(C3(C)CC3)c3ncnc(N)c23)cc1 | 1.44
COCc1ccc(NC(=O)c2c(C#CC3CCN(C)CC3)n(C3(C)CC3)c3ncnc(N)c23)cc1 | 0.772
COCc1ccc(NC(=O)c2c(C#Cc3cncn3C)n(C3(C)CC3)c3ncnc(N)c23)cc1 | 0.143
Cc1cc(NC(=O)c2cn(C3(C)CC3)c3ncnc(N)c23)n[nH]1 [compound 2, reference compound] | 0.022
COCc1ccc(NC(=O)c2c(C#Cc3ccc(N)nc3)n(C3(C)CC3)c3ncnc(N)c23)cc1 | 0.129

INPUT: Give the value of Kp at 1 h reported for the following: COCc1ccc(NC(=O)c2c(C#CCC3CCOCC3)n(C3(C)CC3)c3ncnc(N)c23)cc1
OUTPUT: 0.74

INPUT: Give the value of Kp at 1 h reported for the following: COCc1ccc(NC(=O)c2c(C#CCN(C)C)n(C3(C)CC3)c3ncnc(N)c23)cc1
OUTPUT: 0.969

INPUT: Give the value of Kp at 1 h reported for the following: COCc1ccc(NC(=O)c2c(C#CCC(C)(C)O)n(C3(C)CC3)c3ncnc(N)c23)cc1
OUTPUT: 0.352

INPUT: Give the value of Kp at 1 h reported for the following: COCc1ccc(NC(=O)c2c(C#CCN3CCSCC3)n(C3(C)CC3)c3ncnc(N)c23)cc1
OUTPUT: 0.685

INPUT: Give the value of Kp at 1 h reported for the following: Cc1cc(NC(=O)c2c(C#Cc3cnn(C)c3)n(C3(C)CC3)c3ncnc(N)c23)[nH]n1 [compound 3, reference compound]
OUTPUT: 0.076

INPUT: Give the value of Kp at 1 h reported for the following: CC#Cc1c(C(=O)Nc2ccc(COC)cc2)c2c(N)ncnc2n1C1(C)CC1
OUTPUT: 1.56

###

A collection of compounds and their measured Kp uu at 1 h
- Measurement description: Evaluation of brain penetration property (Kp, Kp,uu) after single oral dose
- Format: in vivo
- Settings: BALB/cAJcl-nu/nu, ratio of unbound compound concentrations in brain/plasma, using mouse plasma and brain protein unbound ratios of Test Example 1, mice, 1 hour, 0.3 or more judged excellent
Enter a number only.

INPUT: Give the value of Kp uu at 1 h reported for the following: COCc1ccc(NC(=O)c2c(C#Cc3cccnc3)n(C3(C)CC3)c3ncnc(N)c23)cc1 [Example 16]
OUTPUT: 0.653

INPUT: Give the value of Kp uu at 1 h reported for the following: COCc1ccc(NC(=O)c2c(C#CCC3CCOCC3)n(C3(C)CC3)c3ncnc(N)c23)cc1 [Example 15]
OUTPUT: 0.37

INPUT: Give the value of Kp uu at 1 h reported for the following: Cc1cc(NC(=O)c2cn(C3(C)CC3)c3ncnc(N)c23)n[nH]1 [compound 2, reference compound]
OUTPUT: 0.005

INPUT: Give the value of Kp uu at 1 h reported for the following: COCc1ccc(NC(=O)c2c(C#CC3CCOCC3)n(C3(C)CC3)c3ncnc(N)c23)cc1 [Example 13]
OUTPUT: 0.891

INPUT: Give the value of Kp uu at 1 h reported for the following: COCc1ccc(NC(=O)c2c(C#Cc3cnn(C)c3)n(C3(C)CC3)c3ncnc(N)c23)cc1 [Example 4]
OUTPUT: 1.2

INPUT: Give the value of Kp uu at 1 h reported for the following: COCc1ccc(NC(=O)c2c(C#Cc3cncn3C)n(C3(C)CC3)c3ncnc(N)c23)cc1 [Example 10]
OUTPUT: 0.056

INPUT: Give the value of Kp uu at 1 h reported for the following: COCc1ccc(NC(=O)c2c(C#CCN3CCOCC3)n(C3(C)CC3)c3ncnc(N)c23)cc1 [Example 2]
OUTPUT: 1.8

INPUT: Give the value of Kp uu at 1 h reported for the following: COCc1ccc(NC(=O)c2c(C#CCN(C)C)n(C3(C)CC3)c3ncnc(N)c23)cc1 [Example 6]
OUTPUT: 0.922

INPUT: Give the value of Kp uu at 1 h reported for the following: COCc1ccc(NC(=O)c2c(C#Cc3ccc(N)nc3)n(C3(C)CC3)c3ncnc(N)c23)cc1 [Example 17]
OUTPUT: 0.052

INPUT: Give the value of Kp uu at 1 h reported for the following: COCc1ccc(NC(=O)c2c(C#CCN3CCSCC3)n(C3(C)CC3)c3ncnc(N)c23)cc1 [Example 18]
OUTPUT: 0.443

INPUT: Give the value of Kp uu at 1 h reported for the following: COCc1ccc(NC(=O)c2c(C#CCN3CCCC3)n(C3(C)CC3)c3ncnc(N)c23)cc1 [Example 12]
OUTPUT: 1.45

INPUT: Give the value of Kp uu at 1 h reported for the following: COCc1ccc(NC(=O)c2cn(C3(C)CC3)c3ncnc(N)c23)cc1 [Example 8]
OUTPUT: 0.1

INPUT: Give the value of Kp uu at 1 h reported for the following: CC#Cc1c(C(=O)Nc2ccc(COC)cc2)c2c(N)ncnc2n1C1(C)CC1 [Example 5]
OUTPUT: 0.681

INPUT: Give the value of Kp uu at 1 h reported for the following: COCc1ccc(NC(=O)c2c(C#CCC(C)(C)O)n(C3(C)CC3)c3ncnc(N)c23)cc1 [Example 14]
OUTPUT: 0.242

INPUT: Give the value of Kp uu at 1 h reported for the following: CCOc1c(C(=O)Nc2ccc(COC)cc2)c2c(N)ncnc2n1C1(C)CC1 [Example 9]
OUTPUT: 0.914

INPUT: Give the value of Kp uu at 1 h reported for the following: COCc1ccc(NC(=O)c2c(C#CC3CCN(C)CC3)n(C3(C)CC3)c3ncnc(N)c23)cc1 [Example 3]
OUTPUT: 0.22

INPUT: Give the value of Kp uu at 1 h reported for the following: COCc1ccc(NC(=O)c2c(C#Cc3cn(C)nc3C)n(C3(C)CC3)c3ncnc(N)c23)cc1 [Example 1]
OUTPUT: 0.425

INPUT: Give the value of Kp uu at 1 h reported for the following: COCc1ccc(NC(=O)c2c(OC[C@H]3CCCO3)n(C3(C)CC3)c3ncnc(N)c23)cc1 [Example 7]
OUTPUT: 0.608

###

A collection of compounds and their measured Kp at 1 h
- Measurement description: Evaluation of brain penetration property (Kp, Kp,uu) after single oral dose
- Format: in vivo
- Settings: BALB/cAJcl-nu/nu, mouse, ratio of compound concentrations in brain/plasma, mice, 1 hour after administration, Kp of 0.1 or more judged brain penetrable
Enter a number only.

Worked cases, Kp at 1 h given:
Given smiles | Kp at 1 h
COCc1ccc(NC(=O)c2c(C#CCN3CCCC3)n(C3(C)CC3)c3ncnc(N)c23)cc1 | 1.02
COCc1ccc(NC(=O)c2c(C#Cc3cccnc3)n(C3(C)CC3)c3ncnc(N)c23)cc1 | 1.09

// switching to the query compound
INPUT: Give the value of Kp at 1 h reported for the following: COCc1ccc(NC(=O)c2c(C#CCN3CCCCC3)n(C3(C)CC3)c3ncnc(N)c23)cc1
OUTPUT: 1.36
